Biological target: IRAK4 (Homo sapiens, UniProt Q9NWZ3)
Sequence (Q9NWZ3 whole entry): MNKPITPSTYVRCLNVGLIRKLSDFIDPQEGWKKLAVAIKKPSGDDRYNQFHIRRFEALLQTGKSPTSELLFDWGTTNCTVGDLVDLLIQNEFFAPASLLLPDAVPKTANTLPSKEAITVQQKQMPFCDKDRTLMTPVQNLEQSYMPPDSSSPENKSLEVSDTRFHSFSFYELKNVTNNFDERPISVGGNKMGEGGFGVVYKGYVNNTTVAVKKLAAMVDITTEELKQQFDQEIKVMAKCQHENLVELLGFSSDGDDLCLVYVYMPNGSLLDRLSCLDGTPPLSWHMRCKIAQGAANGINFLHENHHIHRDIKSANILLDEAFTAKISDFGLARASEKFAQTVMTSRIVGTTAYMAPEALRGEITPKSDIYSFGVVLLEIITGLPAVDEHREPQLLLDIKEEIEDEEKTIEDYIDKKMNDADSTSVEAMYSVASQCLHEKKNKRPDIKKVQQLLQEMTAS
Experiment: Assay for inhibitory effect of compound on IRAK4 kinase activity (KinEASE-STK S1 HTRF kit)
Format: biochemical
Conditions: kinase 8 nM, ATP 80 µM, 37°C 90 minutes; read-out: IRAK4 HTRF IC50
pIC50: −log10 of the molar value.
For each record, write down the corresponding pIC50.

Q: Given the molecule NC(=O)c1nn(-c2cccnc2)cc1NC(=O)c1cccc(C(F)(F)F)n1 , write its reported pIC50.
Ans: 6.00 to 7.00

Q: Given the molecule COc1ccc(-n2cc(NC(=O)c3cccc(C(F)(F)F)n3)c(C(N)=O)n2)cc1 , write its reported pIC50.
Ans: 6.00 to 7.00

Q: Given the molecule NC(=O)c1nc(-c2ccccc2)[nH]c1NC(=O)c1cccc(C(F)(F)F)n1 , write its reported pIC50.
Ans: < 6.00

Q: Given the molecule NC(=O)c1sc(-c2ccccc2)cc1NC(=O)c1cccc(C(F)(F)F)n1 , write its reported pIC50.
Ans: < 6.00

Q: Given the molecule N#Cc1cnn2c(C(=O)Nc3cn(-c4ccccc4)nc3C(N)=O)ccc2c1 , write its reported pIC50.
Ans: > 7.00

Q: Given the molecule NC(=O)c1nn(-c2ccccc2)cc1NC(=O)c1cccc(-c2c[nH]cn2)n1 , write its reported pIC50.
Ans: > 7.00

Q: Given the molecule N#Cc1cnn2c(C(=O)Nc3cn(C4CC5(CCNCC5)C4)nc3C(F)F)ccc2c1 , write its reported pIC50.
Ans: > 7.00

Q: Given the molecule NC(=O)c1sc(-c2ccccc2)nc1NC(=O)c1cccc(C(F)(F)F)n1 , write its reported pIC50.
Ans: < 6.00

Q: Given the molecule N#Cc1nn(-c2ccccc2)cc1NC(=O)c1cccc(C(F)(F)F)n1 , write its reported pIC50.
Ans: < 6.00

Q: Given the molecule CC(O)c1nn(-c2ccccc2)cc1NC(=O)c1cccc(C(F)(F)F)n1 (stereo not drawn) , write its reported pIC50.
Ans: 6.00 to 7.00

Q: Given the molecule O=C(Nc1cn(C2CCC2)nc1C(F)F)c1ccn2ncc(-c3ccn[nH]3)c2n1 , write its reported pIC50.
Ans: 6.00 to 7.00

Q: Given the molecule NC(=O)c1nn(C2CCNCC2)cc1NC(=O)c1cccc(C(F)(F)F)n1 , write its reported pIC50.
Ans: 6.00 to 7.00

Q: Given the molecule O=C(Nc1cn(C2CCC2)nc1C(=O)NC1CC1)c1cccc(-c2ccn[nH]2)n1 , write its reported pIC50.
Ans: > 7.00

Q: Given the molecule NC(=O)c1nn(C2CCC(N)CC2)cc1NC(=O)c1cccc(C(F)(F)F)n1 (stereo not drawn) , write its reported pIC50.
Ans: 6.00 to 7.00

Q: Given the molecule COc1nn(C2CCCCC2)cc1NC(=O)c1cccc(-c2ccn[nH]2)n1 , write its reported pIC50.
Ans: 6.00 to 7.00

Q: Given the molecule NS(=O)(=O)c1nn(C2CCC2)cc1NC(=O)c1cnn2ccc(-c3ccn[nH]3)nc12 , write its reported pIC50.
Ans: > 7.00

Q: Given the molecule [C-]#[N+]c1cnn2c(C(=O)Nc3cn(-c4ccccc4)nc3OC)ccc2c1 , write its reported pIC50.
Ans: > 7.00

Q: Given the molecule NC(=O)c1nn(C2COC3(CCNCC3)C2)cc1NC(=O)c1cccc(C(F)(F)F)n1 (stereo not drawn) , write its reported pIC50.
Ans: 6.00 to 7.00

Q: Given the molecule CC(C)(O)c1nn(-c2ccccc2)cc1NC(=O)c1ccc2cc(C#N)cnn12 , write its reported pIC50.
Ans: > 7.00

Q: Given the molecule O=C(Nc1cn(-c2cccnc2)nc1C(=O)NC1CC1)c1cccc(-c2ccn[nH]2)n1 , write its reported pIC50.
Ans: > 7.00

Q: Given the molecule CNc1ccc(-n2cc(NC(=O)c3cccc(C(F)(F)F)n3)c(C(N)=O)n2)cc1 , write its reported pIC50.
Ans: 6.00 to 7.00

Q: Given the molecule N#Cc1cnn2c(C(=O)Nc3cn(C4CCCCC4)nc3C(N)=O)ccc2c1 , write its reported pIC50.
Ans: > 7.00

Q: Given the molecule CC(C)(C)OC(=O)N1CCC(n2cc(NC(=O)c3cccc(C(F)(F)F)n3)c(C(N)=O)n2)CC1 , write its reported pIC50.
Ans: 6.00 to 7.00

Q: Given the molecule O=C(Nc1cn(-c2ccccc2)nc1C1CCC1)c1cccc(C(F)(F)F)n1 , write its reported pIC50.
Ans: < 6.00

Q: Given the molecule NC(=O)c1nn(-c2ccc(C(=O)N3CC(CNc4ccc5c(c4)C(=O)N(C4CCC(=O)NC4=O)C5=O)C3)cc2)cc1NC(=O)c1cccc(C(F)(F)F)n1 (stereo not drawn) , write its reported pIC50.
Ans: > 7.00

Q: Given the molecule N#Cc1cnn2c(C(=O)Nc3cn(C4CCCCC4)nc3C(F)F)ccc2c1 , write its reported pIC50.
Ans: 6.00 to 7.00

Q: Given the molecule CC(C)(O)c1nn(-c2ccccc2)cc1NC(=O)c1cccc(C(F)(F)F)n1 , write its reported pIC50.
Ans: 6.00 to 7.00

Q: Given the molecule CC(C)n1cc(-c2ccccc2)nc1NC(=O)c1cccc(C(F)(F)F)n1 , write its reported pIC50.
Ans: < 6.00

Q: Given the molecule NC(=O)c1nn(-c2ccccc2)cc1NC(=O)c1cccc(-c2cn[nH]c2)n1 , write its reported pIC50.
Ans: > 7.00

Q: Given the molecule NS(=O)(=O)c1nn(C2CCCCC2)cc1NC(=O)c1cccc(-c2ccn[nH]2)n1 , write its reported pIC50.
Ans: > 7.00

Q: Given the molecule O=C(Nc1cn(C2CCC2)nc1C(F)F)c1cnn2ccc(-c3ccn[nH]3)nc12 , write its reported pIC50.
Ans: > 7.00

Q: Given the molecule NS(=O)(=O)c1nn(-c2ccccc2)cc1NC(=O)c1cccc(-c2cc[nH]n2)n1 , write its reported pIC50.
Ans: > 7.00

Q: Given the molecule CN1CCN(c2ccc(-n3cc(NC(=O)c4cccc(C(F)(F)F)n4)c(C(N)=O)n3)cc2)CC1 , write its reported pIC50.
Ans: > 7.00
